measurementTarget: Beta-2 adrenergic receptor (Homo sapiens)
Sequence (P07550 whole entry): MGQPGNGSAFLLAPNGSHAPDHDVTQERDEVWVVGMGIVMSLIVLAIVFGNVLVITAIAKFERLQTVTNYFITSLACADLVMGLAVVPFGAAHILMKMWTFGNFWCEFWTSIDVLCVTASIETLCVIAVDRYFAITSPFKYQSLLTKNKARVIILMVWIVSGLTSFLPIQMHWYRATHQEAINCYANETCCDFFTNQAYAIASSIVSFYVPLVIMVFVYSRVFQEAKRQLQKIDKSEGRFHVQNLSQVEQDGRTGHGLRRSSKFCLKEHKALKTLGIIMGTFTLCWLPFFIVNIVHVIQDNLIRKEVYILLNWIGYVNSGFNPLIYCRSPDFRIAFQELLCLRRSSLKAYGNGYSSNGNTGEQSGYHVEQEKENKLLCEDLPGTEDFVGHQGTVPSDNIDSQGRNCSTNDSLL
assayNotes: Agonist activity at human beta2 adrenergic receptor expressed in HEK293 cells assessed as increase in cAMP accumulation after 60 mins by HTRF assay
Format: functional, cell-based
conditionSummary: read-out: pEC50 (converted)
endpointLabel: EC50 (nM)

Record excerpt, results attached:
In [3]: df
Out[3]:
                                   compound  endpointlabel  measuredresult
0  O=c1ccc2c(C(CO)NCC(c3ccccc3)c3ccccc3)ccc(O)c2[nH]1 (stereo not given)           EC50             631
1  O=c1ccc2c(C(CO)NCCc3cccc(O)c3)ccc(O)c2[nH]1 (stereo not given)           EC50             794
2  COc1cccc(CCNC(CO)c2ccc(O)c3[nH]c(=O)ccc23)c1 (stereo not given)           EC50               2

(a) O=c1ccc2c(C(CO)NCCCCc3ccccc3)ccc(O)c2[nH]1 (stereo not given)
(b) O=c1ccc2c(C(CO)NCCCCOCCCCc3ccccc3)ccc(O)c2[nH]1 (stereo not given)
Ask: Out of a and b , name the one with the higher EC50. Selection: enter the item's label.
Reply: b
(b: 251 nM, a: 12.6 nM)

(P) O=c1ccc2c(C(CO)NCCc3ccccc3O)ccc(O)c2[nH]1 (stereo not given)
(Q) CC(C)C(=O)Nc1ccc(CCNC(CO)c2ccc(O)c3[nH]c(=O)ccc23)cc1 (stereo not given)
Ask: Out of P and Q , name the one with the higher EC50. Selection: enter the item's label.
Reply: Q

(P) CCc1cc2c(cc1CC)CC(NC(CO)c1ccc(O)c3[nH]c(=O)ccc13)C2 (stereo not given)
(Q) O=c1ccc2c(C(CO)NCCc3ccccc3Cl)ccc(O)c2[nH]1 (stereo not given)
(R) O=C(Nc1ccc(CCNC(CO)c2ccc(O)c3[nH]c(=O)ccc23)cc1)c1ccccc1 (stereo not given)
Ask: # ascending order, key=EC50 In your reply, arrange the labels in the requested order.
Reply: Q, R, P
